Test system: Plasmodium berghei
Assay: Screen against P. berghei liver stage (PbLuc), transformed with Luciferase, at 10uM
Assay type: functional, HepG2
Settings: tested at 10 uM
Among all 69,000 compounds or so, about 8,600 (12%) showed an effect of 50% or more. The sample holds strong results, similar compounds and a random draw of the others, so the mix is not that of the screen.
Measured quantity: INHIBITION (%)
Please respond with the number in % and leave the unit unwritten.

INHIBITION reading for Cc1cc(-c2nn(C)c(Cl)c2CN2Cc3ccccc3C(O)C2)no1 (configuration not stated) : 51.8

The compound listed as CCN1C(=O)[C@]2(CC[C@@H]3CN(C(=O)Nc4ccc(F)cc4)C[C@@H]32)N=C1C shows INHIBITION equal to 22.2

Quick note, INHIBITION for Cc1cc(C)n(C2CCN(Cc3c(-c4cc(C)on4)nn(C)c3Cl)C2)n1 (configuration not stated) landed at 28.5

response.value for O=C(Cc1ccc(F)cc1)NCCNS(=O)(=O)C1CCCC1 (field: INHIBITION) = 54.9

INHIBITION in this record for c1cnc(N2CCCC3(CN(CC4CCOCC4)CCO3)C2)cn1 (configuration not stated) : -36

For CC(c1ccc(S(N)(=O)=O)cc1)N(C)C(=O)c1ccccc1I (configuration not stated) the compound record lists INHIBITION as -43.5

GET /value?item= Fc1ccccc1CN1CCCC2(CCN(c3ncccn3)CC2)C1 &field=INHIBITION returns 30.3

The compound listed as Cc1cnn(CC2CCCN2C(=O)Cn2nc(C)c(Cl)c2C)c1 (configuration not stated) has a reported INHIBITION of -41.5

INHIBITION reported for this compound Fc1cnccc1CN1CCCC2(CCN(c3ncccn3)CC2)C1 : 30.3

Looking up CCNC(=O)C1CN(Cc2c(-c3cc(C)on3)nn(C)c2Cl)CCO1 (configuration not stated) , I see its INHIBITION listed as 43

Value of INHIBITION reported for the compound c1cnc(N2CCC3(CCCN(CC4CC4)C3)CC2)nc1 is 61.1

Form: compound = c1cnc(N2CCC3(CCCN(CC4CCCCC4)C3)C2)cn1 (configuration not stated) ; INHIBITION = 63

So, Cc1cnc(N2CC[C@H]3[C@@H]2CCC(=O)N3c2cccnc2)nc1 ? Its INHIBITION was 37.1

Value of measured INHIBITION for the entry Cc1cc(-c2nn(C)c(Cl)c2CN2CC[C@@](O)(C3CCC3)[C@H](C)C2)no1 : 33.9

Entry c1cnc(N2CCCC3(COCCN(CC4CC4)C3)C2)nc1 (configuration not stated) — recorded INHIBITION = -6.23

Summary for this compound, CN(C)S(=O)(=O)N1C[C@H]2CC[C@@H](C1)N(Cc1cccc(C#N)c1)C2 : INHIBITION is -6.88

Kindly note the recorded INHIBITION for Cc1cc(-c2nn(C)c(Cl)c2CN2CCOC(C(=O)O)C2)no1 (configuration not stated) , which is 17.6

Lab note: measured INHIBITION of Cc1cc(-c2nn(C)c(Cl)c2CN2CCC3(CC2)[C@H](O)C[C@@H]3O)no1 was 50.3

Briefly, INHIBITION measured for Fc1ccccc1CN1CCCC2(CCN(c3ncccn3)C2)C1 (configuration not stated) : 74.9

Value of INHIBITION reported for the compound Cn1nnc2c1C(COCc1ccccn1)CN(C(=O)c1cccs1)C2 (configuration not stated) is 31.8

Record O=C(Cc1ccccc1)NCCNS(=O)(=O)C1CCCCC1 . Reported INHIBITION: 18.2

Recorded result, O=C1OC2(CCNCC2)CN1CC(=O)N1CCCC1c1ccco1 (configuration not stated) , INHIBITION: 16.8
